# assay info: Pharmacokinetic study in mice, single oral dose
# Type: in vivo, balb/c mice
# details: mouse, plasma; balb/c mice, 50 mg/kg, oral gavage; converted with MW = 442.32; read-out: maximum serum concentration (Cmax)
quantity: Cmax (µM)

C[C@]12CC[C@H](O)C[C@@H]1CC[C@@H]1[C@@H]2CC[C@@]2(C)[C@H]1CC[C@@H]2[C@](C)(O)CCc1ccc(F)cc1 [Oxy186] = 3.4

----------
# assay info: Pharmacokinetic study in mice, single oral dose
# Assay type: in vivo, balb/c mice
# details: mouse, plasma; balb/c mice, 50 mg/kg, oral gavage; converted from ng/mL; read-out: area under the curve (AUC), molar
quantity: AUC

C[C@]12CC[C@H](O)C[C@@H]1CC[C@@H]1[C@@H]2CC[C@@]2(C)[C@H]1CC[C@@H]2[C@](C)(O)CCc1ccc(F)cc1 = 23.7 µM·h

----------
# assay info: Metabolic stability in human liver microsomes
# Format: in vitro ADME
# details: 60 min, read-out: HLM, % Remaining after 60 min
quantity: remaining at 1 h

C[C@]12CC[C@H](O)C[C@@H]1CC[C@@H]1[C@@H]2CC[C@@]2(C)[C@H]1CC[C@@H]2[C@](C)(O)CCc1ccc(F)cc1 [Oxy186] = 40%
CC(C)CCC(O)C(C)(O)C1CCC2C3CC=C4CC(O)CCC4(C)C3CCC21C [Oxy16, 20-α, 22(R)-dihydroxycholesterol, reference compound] = 6%

----------
# assay info: Pharmacokinetic study in mice, single oral dose
# Format: in vivo, balb/c mice
# details: mouse, plasma; balb/c mice, 50 mg/kg, oral gavage, single dose; read-out: oral half-life (T1/2) (converted)
quantity: half-life

C[C@]12CC[C@H](O)C[C@@H]1CC[C@@H]1[C@@H]2CC[C@@]2(C)[C@H]1CC[C@@H]2[C@](C)(O)CCc1ccc(F)cc1 [Oxy186] = 4.5 h

----------
# assay info: Pharmacokinetic study in mice, single oral dose
# Format: in vivo, balb/c mice
# details: mouse, plasma; balb/c mice, 50 mg/kg, oral gavage, single dose; read-out: area under the curve (AUC)
quantity: AUC (ng·h/mL)

C[C@]12CC[C@H](O)C[C@@H]1CC[C@@H]1[C@@H]2CC[C@@]2(C)[C@H]1CC[C@@H]2[C@](C)(O)CCc1ccc(F)cc1 [Oxy186] = 10500

----------
# assay info: Metabolic stability in mouse liver microsomes
# Assay type: in vitro ADME
# details: 60 min, read-out: MLM, % Remaining after 60 min
Property: remaining at 1 h; scope: individual molecules
quantity: remaining at 1 h (%)

CC(C)CCC(O)C(C)(O)C1CCC2C3CC=C4CC(O)CCC4(C)C3CCC21C [Oxy16, 20-α, 22(R)-dihydroxycholesterol, reference compound] = 5
C[C@]12CC[C@H](O)C[C@@H]1CC[C@@H]1[C@@H]2CC[C@@]2(C)[C@H]1CC[C@@H]2[C@](C)(O)CCc1ccc(F)cc1 = 50

----------
# assay info: Metabolic stability in human liver microsomes
# Assay type: in vitro ADME
# details: human, liver microsomes, read-out: HLM, Half-Life
quantity: half-life

CC(C)CCC(O)C(C)(O)C1CCC2C3CC=C4CC(O)CCC4(C)C3CCC21C [Oxy16, 20-α, 22(R)-dihydroxycholesterol, reference compound] = < 15 min
C[C@]12CC[C@H](O)C[C@@H]1CC[C@@H]1[C@@H]2CC[C@@]2(C)[C@H]1CC[C@@H]2[C@](C)(O)CCc1ccc(F)cc1 = 43 min
